# assay_explanation: Stability in human liver microsomes
# Format: in vitro ADME
# test_conditions: 37° C., NADPH
assay_metric: percent of compound remaining after 60 min in human liver microsomes

These solved cases illustrate the format of a correct answer.
# structure_smiles_string, readout_value
records = [
    ("CC(C)NC(=O)Nc1ccc(-c2cc(-c3ccnc(C(C)(C)C)c3)cs2)c(Cl)c1", "++ (30.1-60 = ++)"),
    ("CC(C)NS(=O)(=O)Nc1ccc(-c2cc(-c3ccnc(C(C)(C)CO)c3)cs2)c(Cl)c1", "++ (30.1-60 = ++)"),
    ("CN(c1ccc(-c2cc(-c3ccnc(C4(CO)CC4)c3)cs2)c(Cl)c1)S(C)(=O)=O", "++ (30.1-60 = ++)"),
    ("CC(C)OC(=O)Nc1ccc(-c2cc(-c3ccnc(CC(C)(C)O)c3)cs2)c(Cl)c1", "+++ (>60.1 = +++)"),
]

// moving on: another record for percent of compound remaining after 60 min in human liver microsomes
Ask: Endpoint output: percent of compound remaining after 60 min in human liver microsomes of `CCOC(=O)Nc1ccc(-c2cc(-c3ccnc(C(C)(C)C)c3)cs2)c(Cl)c1` . Value?
Result: +++ (>60.1 = +++)

Just for reference, patent US20220056018A1 is where these values come from.
